Reference source for all entries: patent US4440772A

Test system: alpha-adrenergic receivers of the dilatating pupil muscle
test-details: effect on the function of the pupil (mydriatic effect, Polewka's method)
Format: in vivo
run-parameters: after 15 min., 5 mg/kg intravenously, mouse
observed-property: The increase of pupil widening in comparison with the control (%)
Number in %, nothing else.

Return reported The increase of pupil widening in comparison with the control; argument: CC(C)[C@H]1C(=O)N2CCC[C@H]2[C@]2(O)O[C@](NC(=O)[C@H]3C=C4c5cccc6[nH]cc(c56)C[C@H]4N(C)C3)(C(C)C)C(=O)N12 [ergocorninine methanesulfonate, Ergocorninine methanesulfonate] 52.7

What value of measured The increase of pupil widening in comparison with the control is listed for CC(C)C[C@H]1C(=O)N2CCC[C@H]2[C@]2(O)O[C@](NC(=O)[C@H]3C=C4c5cccc6[nH]cc(c56)C[C@H]4N(C)C3)(C(C)C)C(=O)N12 [ergocryptinine methanesulfonate, Ergocryptinine methanesulfonate] ? 117.4

Which value of The increase of pupil widening in comparison with the control has been reported for CN1C[C@@H](C(=O)N[C@]2(C)O[C@@]3(O)[C@@H]4CCCN4C(=O)[C@H](Cc4ccccc4)N3C2=O)C=C2c3cccc4[nH]cc(c34)C[C@H]21 [ergotaminine methanesulfonate, Ergotaminine methanesulfonate] in the records? 66.3

Look up The increase of pupil widening in comparison with the control: CC(C)C[C@H]1C(=O)N2CCC[C@H]2[C@]2(O)O[C@@](C)(NC(=O)[C@@H]3C=C4c5cccc6[nH]cc(c56)C[C@H]4N(C)C3)C(=O)N12 [ergosine methanesulfonate, reference compound] 115.6

* * *

Tested on: spontaneously hypertensive rats
test-details: effect on arterial pressure of spontaneously hypertensive rats
Type: in vivo, rats (variety Okamoto Aoki F32)
run-parameters: control; spontaneously hypertensive rats
observed-property: Systolic blood pressure (mm Hg)
Give the number; mm Hg is assumed, so skip it.

Look up Systolic blood pressure for this compound: CC(C)C[C@H]1C(=O)N2CCC[C@H]2[C@]2(O)O[C@@](C)(NC(=O)[C@H]3C=C4c5cccc6[nH]cc(c56)C[C@H]4N(C)C3)C(=O)N12 [ergosinine methanesulfonate, Ergosinine methanesulfonate] 180

Which Systolic blood pressure is reported for this compound? CN1C[C@@H](C(=O)N[C@]2(C)O[C@@]3(O)[C@@H]4CCCN4C(=O)[C@H](Cc4ccccc4)N3C2=O)C=C2c3cccc4[nH]cc(c34)C[C@H]21 [ergotaminine methanesulfonate, Ergotaminine methanesulfonate] 189

* * *

test-details: acute toxicity (LD50), intraperitoneal administration
run-parameters: mouse, in vivo, ip, male mice, 24 hours after administration
Counter-ions that a name gives are not always drawn.
observed-property: LD50 at 24 h (mg/kg)
Return type: number; implicit unit mg/kg.

# query: LD50 at 24 h of entry CC(C)C[C@H]1C(=O)N2CCC[C@H]2[C@]2(O)O[C@@](C)(NC(=O)[C@H]3C=C4c5cccc6[nH]cc(c56)C[C@H]4N(C)C3)C(=O)N12 [ergosinine methanesulfonate, Ergosinine methanesulfonate] 245

Using the record for CN1C[C@H](C(=O)N[C@]2(C)O[C@@]3(O)[C@@H]4CCCN4C(=O)[C@H](Cc4ccccc4)N3C2=O)C=C2c3cccc4[nH]cc(c34)C[C@H]21 [ergotamine tartrate, reference compound] , report its LD50 at 24 h. 412

* * *

System: spontaneously hypertensive rats
test-details: effect on arterial pressure of spontaneously hypertensive rats
Format: in vivo, rats (variety Okamoto Aoki F32)
run-parameters: day 8; 50 mcg/kg intraperitoneally
observed-property: Systolic blood pressure (mm Hg)
Give your result in mm Hg as a bare value.

// returns reported Systolic blood pressure for input CC(C)C[C@H]1C(=O)N2CCC[C@H]2[C@]2(O)O[C@@](C)(NC(=O)[C@H]3C=C4c5cccc6[nH]cc(c56)C[C@H]4N(C)C3)C(=O)N12 [ergosinine methanesulfonate, Ergosinine methanesulfonate] 141

I'd like to know its Systolic blood pressure. The compound in question is CC(C)C[C@H]1C(=O)N2CCC[C@H]2[C@]2(O)O[C@@](C)(NC(=O)[C@@H]3C=C4c5cccc6[nH]cc(c56)C[C@H]4N(C)C3)C(=O)N12 [ergosine methanesulfonate, reference compound] 175

// Systolic blood pressure lookup, key: CC(C)[C@@]1(NC(=O)[C@H]2C=C3c4cccc5[nH]cc(c45)C[C@H]3N(C)C2)O[C@@]2(O)[C@@H]3CCCN3C(=O)[C@H](Cc3ccccc3)N2C1=O [ergocristinine methanesulfonate, Ergocristinine methanesulfonate] 160
